Recorded conditions: Escherichia coli (strain K12); pH 7.5; Thermal; Intensity; HEPES 20mM; transition: 2; whole UniProt chain shown
I'd appreciate it if you could supply Tm values for the items below.
Numbers only, in °C.

Read off the recorded Tm for Transcriptional regulatory protein PhoP wild type, P23836 (protein) MRVLVVEDNALLRHHLKVQIQDAGHQVDDAEDAKEADYYLNEHIPDIAIVDLGLPDEDGLSLIRRWRSNDVSLPILVLTARESWQDKVEVLSAGADDYVTKPFHIEEVMARMQALMRRNSGLASQVISLPPFQVDLSRRELSINDEVIKLTAFEYTIMETLIRNNGKVVSKDSLMLQLYPDAELRESHTIDVLMGRLRKKIQAQYPQEVITTVRGQGYLFELR
42.6

State, in one line, measured Tm of Phospho-2-dehydro-3-deoxyheptonate aldolase, Phe-sensitive wild type, P0AB91 (protein) MNYQNDDLRIKEIKELLPPVALLEKFPATENAANTVAHARKAIHKILKGNDDRLLVVIGPCSIHDPVAAKEYATRLLALREELKDELEIVMRVYFEKPRTTVGWKGLINDPHMDNSFQINDGLRIARKLLLDINDSGLPAAGEFLDMITPQYLADLMSWGAIGARTTESQVHRELASGLSCPVGFKNGTDGTIKVAIDAINAAGAPHCFLSVTKWGHSAIVNTSGNGDCHIILRGGKEPNYSAKHVAEVKEGLNKAGLPAQVMIDFSHANSSKQFKKQMDVCADVCQQIAGGEKAIIGVMVESHLVEGNQSLESGEPLAYGKSITDACIGWEDTDALLRQLANAVKARRG
41.7

Return Tm for the following protein: Multidrug efflux pump subunit AcrA wild type, P0AE06 (protein) MNKNRGFTPLAVVLMLSGSLALTGCDDKQAQQGGQQMPAVGVVTVKTEPLQITTELPGRTSAYRIAEVRPQVSGIILKRNFKEGSDIEAGVSLYQIDPATYQATYDSAKGDLAKAQAAANIAQLTVNRYQKLLGTQYISKQEYDQALADAQQANAAVTAAKAAVETARINLAYTKVTSPISGRIGKSNVTEGALVQNGQATALATVQQLDPIYVDVTQSSNDFLRLKQELANGTLKQENGKAKVSLITSDGIKFPQDGTLEFSDVTVDQTTGSITLRAIFPNPDHTLLPGMFVRARLEEGLNPNAILVPQQGVTRTPRGDATVLVVGADDKVETRPIVASQAIGDKWLVTEGLKAGDRVVISGLQKVRPGVQVKAQEVTADNNQQAASGAQPEQSKS
45.7

Let us move to another entry and its Tm.
Identify the reported Tm for the following entry. Probable L,D-transpeptidase YnhG wild type, P76193 (protein) MKRASLLTLTLIGAFSAIQAAWAVDYPLPPTGSRLVGQNQTYTVQEGDKNLQAIARRFDTAAMLILEANNTIAPVPKPGTTITIPSQLLLPDAPRQGIIVNLAELRLYYYPPGENIVQVYPIGIGLQGLETPVMETRVGQKIPNPTWTPTAGIRQRSLERGIKLPPVVPAGPNNPLGRYALRLAHGNGEYLIHGTSAPDSVGLRVSSGCIRMNAPDIKALFSSVRTGTPVKVINEPVKYSVEPNGMRYVEVHRPLSAEEQQNVQTMPYTLPAGFTQFKDNKAVDQKLVDKALYRRAGYPVSVSSGATPAASNAPSVESAQNGEPEQGNMLRVTQ
44.1
